- study_target: Torsin-1A-interacting protein 2 (Homo sapiens) (UniProt Q8NFQ8)
- Sequence (Q8NFQ8 whole entry, looked up): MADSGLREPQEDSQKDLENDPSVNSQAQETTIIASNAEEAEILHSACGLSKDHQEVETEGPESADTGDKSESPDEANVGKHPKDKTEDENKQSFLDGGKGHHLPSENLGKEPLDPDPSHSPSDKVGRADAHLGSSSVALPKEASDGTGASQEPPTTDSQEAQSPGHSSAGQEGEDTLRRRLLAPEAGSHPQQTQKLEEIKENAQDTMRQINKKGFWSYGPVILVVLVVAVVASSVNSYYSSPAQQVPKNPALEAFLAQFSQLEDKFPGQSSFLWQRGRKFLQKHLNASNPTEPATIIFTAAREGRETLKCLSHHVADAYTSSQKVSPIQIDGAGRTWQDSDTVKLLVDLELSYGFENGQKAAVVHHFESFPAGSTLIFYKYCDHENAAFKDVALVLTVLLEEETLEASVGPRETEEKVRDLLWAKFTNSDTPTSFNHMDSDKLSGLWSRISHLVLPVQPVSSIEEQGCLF
- measurement_protocol: small molecules binding lysate-expressed LULL1 – cell lysate, human LULL1 lysate, 635/667 nm fluorescence, primary screen (AID 1092);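 note: probe is lysate of COS7 cells overexpressing human LULL1; score merges per-feature 667 nm fluorescence with signal-to-noise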
- assay_setup: small-molecule microarray, hLULL1 lysate binding, 635 nm fluorescence; higher = more signal
readout_name: composite z-score
Give bare numbers.

Example results:
compound | reported_result
O=C1O[C@H](c2ccccc2)[C@H](c2ccccc2)N2[C@H]1[C@@H](C(=O)NC[C@H](O)c1ccccc1)[C@]1(C(=O)Nc3ccc(C#CC4=CCCCC4)cc31)[C@H]2c1ccc(O)cc1 | 2.59
CN(C)CCCC[C@@H]1NC(=O)[C@@H]2C[C@H](C(=O)NCCCCCN)[C@H](c3ccc(O)cc3)N2C1=O | 2.6
CC(=O)n1cc(C(O)C2C=CC3C(=O)N(c4ccccc4)C(=O)C3N2Nc2ccc(C#N)cc2)c2ccccc21 (centres undefined) | 3.4

Hi there! I need composite z-score for each item below, if you can.
1. C[N+](C)(C)CCCCNC(=O)[C@H]1C[C@H]2C(=O)N3CCC[C@H]3C(=O)N2[C@H]1c1ccc(O)cc1
2. CCOC(=O)C[C@H]1[C@H](OC(=O)c2cc3ccccc3oc2=O)[C@@H](NC(=O)c2ccc3ccccc3c2)c2cc(OCCCO)ccc2N1C(=O)c1ccccc1
3. COc1cc2c(cc1O)C(c1ccc(CN3CCCC3)cc1)N(Cc1sc3ccccc3c1Cl)CC2 (centres undefined)
4. C=CCNC(=O)[C@H]1[C@@H]2C(=O)O[C@@H](c3ccccc3)[C@@H](c3ccccc3)N2[C@@H](c2ccc(O)cc2)[C@]12C(=O)Nc1ccc(C#Cc3ccc(OC)cc3)cc12

Result:
[2.14, 1.6, 1.93, 2.86]

Please give composite z-score for each item listed below.
1. O=C1C2C=CC(C(O)c3ccc(-c4ccccc4)s3)N(Nc3ccccc3F)C2C(=O)N1c1ccccc1 (centres undefined)
2. O=C1C2C=CC(C(O)C3CC=CCC3)N(n3cnnc3)C2C(=O)N1Cc1ccccc1 (centres undefined)
3. COCCOC(=O)N1C(=O)[C@@]2(c3ccccc31)[C@H](c1ccc(O)cc1)N1[C@H](c3ccccc3)[C@H](c3ccccc3)OC(=O)[C@H]1[C@@H]2C(N)=O
4. CC1CC/C=C\[C@H]2OC34C=CCN(CCN5CCOCC5)C(=O)[C@H]3N(CCCCCO)C(=O)[C@@H]4C2C(=O)O1 (some centres undefined)
5. C=CCN1C(=O)[C@]2(COC(c3ccc(OCCCO)cc3)=N2)Cc2ccccc21
6. C=C[C@H](C)[C@H](OC(=O)Nc1ccc(OC)cc1)c1ccc(O)c2ccccc12
7. CCOC(=O)C1=C[C@@H](C(C)(C)C)N(S(=O)(=O)c2ccc(C)cc2)[C@H]1c1ccc(Cl)c(Cl)c1
8. C=C(/C(=C/C[C@@H](OC(=O)c1ccncc1)c1ccc(CO)o1)c1cc(C(=O)OC)ccc1OC)C(C)C

Result:
1: 2.85; 2: 1.09; 3: 2.35; 4: -1.13; 5: 3.21; 6: 0.645; 7: 2.68; 8: 2.47

Please look at the items below and tell me composite z-score for each one, in order.
1. C=CCNC(=O)[C@H]1[C@@H]2C(=O)O[C@@H](c3ccccc3)[C@@H](c3ccccc3)N2[C@@H](c2ccc(OCCO)cc2)[C@]12C(=O)N(C(=O)OCCOC)c1ccc(C#CC3(O)CCCCCC3)cc12
2. CC(c1ccccc1)C(O)C1C=CC2C(=O)N(Cc3ccccc3)C(=O)C2N1n1cnnc1 (centres undefined)
3. COc1ccc(CCNC(=O)[C@@]2(C)c3ccccc3C(=O)N(Cc3ccccc3)[C@H]2c2ccc(CO)cc2)cc1
4. [N-]=[N+]=Nc1ccccc1[C@H]1OC(c2ccc(OCCCO)cc2)=N[C@@]1(CCS(=O)(=O)c1ccccc1)C(=O)N1CCOCC1

Result:
1: 2.42; 2: 1.6; 3: 3.05; 4: 3.1

Lab note: each compound below needs its composite z-score filled in.
1. C=C(CCCC)/C(=C/C[C@@H](OC(=O)c1ccncc1)c1ccc(CO)o1)c1cc(C(=O)OC)ccc1OC
2. C=CCN1C(=O)[C@@]2(O[C@@H](CCO)[C@H]([Si](C)(C)c3ccc(OC)cc3)[C@H]2C)c2cc(NC(C)=O)ccc21
3. COc1ccc(C#Cc2ccc3c(c2)[C@]2(C(=O)N3)[C@H](C(=O)N3CCc4cc(OC)c(OC)cc4C3)[C@H]3C(=O)O[C@H](c4ccccc4)[C@H](c4ccccc4)N3[C@@H]2c2ccc(OCCO)cc2)cc1
4. CN(C)CCCCNC(=O)[C@@H]1C[C@@H]2C(=O)N[C@@H](CCCCN)C(=O)N2[C@@H]1c1cccc(OCCO)c1
5. O=C(NCCN1CCOCC1)[C@@H]1c2ccccc2C(=O)N(Cc2cc(F)cc(C(F)(F)F)c2)[C@H]1c1ccc(CO)cc1
6. CCN(CC)c1ccc(N2CC=CC34O[C@@H]5C=CCOC(=O)[C@@H]5[C@H]3C(=O)N(CCCCCO)[C@@H]4C2=O)cc1 (some centres undefined)
7. CCOC1=C2C(c3ccc(C)cc3)N(S(=O)(=O)c3ccc(C)cc3)CC2n2c(=O)n(-c3ccccc3)c(=O)n2C1 (centres undefined)
8. O=C1OCCC/C=C\[C@H]2OC34C=CCN(Cn5nnc6ccccc65)C(=O)[C@H]3N(CCCO)C(=O)[C@@H]4C12 (some centres undefined)

Result:
1: 2.3; 2: 1.96; 3: 2.51; 4: 3.58; 5: 3.05; 6: 2.74; 7: 2.89; 8: 3.64

Please go through the list and note composite z-score for each compound.
1. COCCCNC(=O)[C@@]1(Sc2ccc(C)cc2)CC(=O)N(Cc2ccccc2)[C@@H]1c1ccc(CO)cc1
2. CCCCCCCCCCC(O)C1C=CC2C(=O)N(c3ccccc3)C(=O)C2N1Nc1ccc([N+](=O)[O-])cc1 (centres undefined)

Result:
1: 2.66; 2: 3.25

----------
Field: z-score. Provide a value for each of the molecules that follow.
- measurement_protocol: viability profiling in RPMI8226 myeloma cells – cell-based, resazurin fluorescence, basal, 24 h, PK04 Diversity Set, profiling panel (AID 1180);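 note: RPMI8826 multiple myeloma cell line at 5000 cells per well; test concentration not given here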
- assay_setup: higher = more signal

Some solved entries appear below for comparison.
molecule | readout_name | reported_result
C=CC[C@]1(C(=O)O)N=C(c2ccc(OCCCO)cc2)O[C@H]1c1ccccc1CN=[N+]=[N-] | z-score | -0.728
COCCOC(=O)N1C(=O)[C@@]2(c3cc(C#Cc4ccc(OC)cc4)ccc31)[C@H](c1ccc(O)cc1)N1[C@H](c3ccccc3)[C@H](c3ccccc3)OC(=O)[C@H]1[C@@H]2C(=O)N1CCN(c2ncccn2)CC1 | z-score | 0.138
CC(C)C(CO)N1C(=O)[C@@H]2[C@H]3C(=O)OCC=C[C@H]3OC23C=CCN(c2ccc4ccccc4c2)C(=O)[C@@H]13 (some centres not stated) | z-score | 0.133
C=C(C(=O)CC[C@H](OC(=O)c1cccnc1)c1ccccc1OCCO)C(C)C | z-score | -2.14
[N-]=[N+]=NCc1ccccc1C[C@]1(C(=O)NCCN2CCOCC2)N=C(c2ccc(OCCCO)cc2)O[C@H]1c1ccccc1CN=[N+]=[N-] | z-score | 0.0688

Please look at the items below and tell me z-score for each one, in order.
1. O=C1C2C=CC(C(O)c3ccccn3)N(Nc3ccccc3F)C2C(=O)N1c1ccccc1 (configuration not stated)
2. [N-]=[N+]=NCc1ccccc1[C@H]1OC(c2ccc(OCCCO)cc2)=N[C@@]1(Cc1ccccc1)C(=O)O

Result:
1: -0.0768; 2: 0.273

----------
- Tested on: Fibrinogen (Alexa647-labelled)
- measurement_protocol: Alexa647-fibrinogen binding to printed small molecules – biochemical, small-molecule microarray, 635/667 nm fluorescence, artefact control for SMM control-protein annotation, profiling panel (AID 1131);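 note: z-score merges 667 nm fluorescence with per-spot signal-to-noise over triplicate slides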
- assay_setup: fibrinogen-A647 binding fluorescence, higher = more signal
Consider the reported composite z-score of an entry and match it to a band in LOW: < 0.3; MEDIUM: ≥ 0.3 and < 0.6; HIGH: ≥ 0.6

Would you please look over these solved cases?
compound | class_name
COc1ccc(CCNC(=O)[C@@]2(C)c3ccccc3C(=O)N(Cc3ccccc3)[C@H]2c2ccc(CO)cc2)cc1 | HIGH
C=C(/C(=C/C[C@@H](OC(=O)c1ccncc1)c1ccc(CO)o1)c1cc(C(=O)OC)ccc1OC)C(C)C | MEDIUM
COCCCNC(=O)[C@@]1(C)c2ccccc2C(=O)N(Cc2ccccc2)[C@H]1c1ccc(CO)cc1 | LOW
O=S(=O)(NCCCO)c1ccc(Br)cc1 | LOW
Oc1ccc2cc[n+](Cc3cccc(OC(F)(F)F)c3)cc2c1 | LOW

Problem: Exercise: read the entry O=C(NCc1ccccc1)[C@@H]1c2ccccc2C(=O)N(C2CCCCC2)[C@H]1c1ccc(CO)cc1 and state which class it falls under.
Result: LOW

Problem: Lab note: which band did OCCCc1cc[n+](Cc2cccc(OC(F)(F)F)c2)cc1 land in?
Result: MEDIUM

Problem: Lab note: sort C=CCNC(=O)[C@H]1[C@@H]2C(=O)O[C@@H](c3ccccc3)[C@@H](c3ccccc3)N2[C@@H](c2ccc(O)cc2)[C@]12C(=O)Nc1ccc(C#Cc3ccc(OC)cc3)cc12 into the matching composite z-score band.
Result: HIGH

Problem: Exam item: assign Cc1ccc(S[C@]2(C(=O)NCCCN(C)C)CC(=O)N(Cc3ccccc3)[C@@H]2c2ccc(CO)cc2)cc1 to the correct category.
Result: LOW

Problem: Textbook exercise: identify the category of the compound given here, O=C1C2C=CC(C(O)c3cccc4ccccc34)N(n3cnnc3)C2C(=O)N1Cc1ccccc1 (stereo unspecified) , according to its measured value.
Result: HIGH

Problem: Which class holds C=CCC(OC(C)=O)[C@@H]1[C@@H](N(Cc2ccc(-c3ccccc3)cc2)C(=O)c2ccc(C)cc2)c2cc(OCCCO)ccc2N1C(=O)Cc1ccc(OC)cc1 (stereo partly specified) ?
Result: MEDIUM

Ref: PubChem BioAssay
